- System: pooled primary human hepatocyte suspensions
- ASSAY_PROTOCOL: Hepatic clearance assay (substrate depletion, LC-MS)
- EXPERIMENTAL_CONTEXT: pooled primary human hepatocyte suspensions; in µL/min/10^6 cells
For each of the compounds below, state its in vitro CLint exp assay.
Please reply with the value in numeric form only.

Given `O=S(=O)([O-])C(F)(F)C(F)(F)C(F)(F)C(F)(F)C(F)(F)C(F)(F)C(F)(F)C(F)(F)F.[K+]` , respond with its in vitro CLint exp assay.
2.96

Given NS(=O)(=O)C(F)(F)C(F)(F)C(F)(F)C(F)(F)C(F)(F)C(F)(F)C(F)(F)C(F)(F)F [Perfluorooctane sulfonamide (PFOSA)] , respond with its in vitro CLint exp assay.
17.84

Given O=S(=O)(O)C(F)(F)C(F)(F)C(F)(F)C(F)(F)C(F)(F)C(F)(F)C(F)(F)C(F)(F)F [Perfluorooctanesulfonate (PFOS-)] , respond with its in vitro CLint exp assay.
0

Given `O=C(O)CCC(F)(F)C(F)(F)C(F)(F)C(F)(F)C(F)(F)C(F)(F)C(F)(F)F` , respond with its in vitro CLint exp assay.
13.21

Given `O=C(O)C(F)(F)C(F)(F)C(F)(F)F` , respond with its in vitro CLint exp assay.
0

Given `O=S(=O)(O)CCC(F)(F)C(F)(F)C(F)(F)C(F)(F)C(F)(F)C(F)(F)F` , respond with its in vitro CLint exp assay.
1.4

Given `O=S(=O)(O)C(F)(F)C(F)(F)C(F)(F)C(F)(F)C(F)(F)C(F)(F)F` , respond with its in vitro CLint exp assay.
0

---

- ASSAY_PROTOCOL: IVIVE: steady-state concentration (Css), generic HTTK model
- Design: species or system human
- EXPERIMENTAL_CONTEXT: fub=fup/(B:P); Fub set to 1 if needed
For each of the compounds below, state its Fub.
Please reply with the value in numeric form only.

Given O=S(=O)(O)C(F)(F)C(F)(F)C(F)(F)C(F)(F)C(F)(F)C(F)(F)C(F)(F)F [Perfluoroheptanesulfonic acid (PFHpS)] , respond with its Fub.
0.001091

Given O=C(O)C=CC(F)(C(F)(F)F)C(F)(F)F [3-(Perfluoroisopropyl)-2-propenoic acid] , respond with its Fub.
0.1824

Given N.O=C(O)C(F)(F)C(F)(F)C(F)(F)C(F)(F)C(F)(F)C(F)(F)C(F)(F)F [Ammonium perfluorooctanoate (NH4PFOA)] , respond with its Fub.
0.001273

Given O=C(O)C(F)(F)C(F)(F)C(F)(F)C(F)(F)C(F)(F)F [Perfluorohexanoic acid (PFHxA)] , respond with its Fub.
0.01236

---

- ASSAY_PROTOCOL: IVIVE: steady-state concentration (Css), generic HTTK model
- Design: species or system human
- EXPERIMENTAL_CONTEXT: QL 1500000 uL/min
MEASUREMENT_NAME: CLhep (L/h)
Kindly answer with a numeric value in L/h, unit omitted.

Given O=C(O)C(F)(F)C(F)(F)C(F)F [4H-perfluorobutanoic acid (4H-PFBA)] , respond with its CLhep.
0.000

Given `CNS(=O)(=O)C(F)(F)C(F)(F)C(F)(F)C(F)(F)C(F)(F)C(F)(F)C(F)(F)C(F)(F)F` , respond with its CLhep.
4.921

Given O=C(O)C(F)(F)C(F)(F)C(F)(F)C(F)(F)C(F)(F)C(F)(F)C(F)(F)C(F)(F)C(F)(F)C(F)(F)C(F)(F)C(F)(F)F [Perfluorotridecanoic acid] , respond with its CLhep.
0.000

Given O=C(O)C(F)(F)C(F)(F)C(F)(F)C(F)(F)C(F)(F)C(F)(F)F [Perfluoroheptanoic acid (PFHpA)] , respond with its CLhep.
0.000

Given `O=S(=O)(Cl)C(F)(F)C(F)(F)C(F)(F)C(F)(F)C(F)(F)C(F)(F)C(F)(F)C(F)(F)F` , respond with its CLhep.
0.000

Given O=C(O)C(F)(F)C(F)(F)C(F)(F)C(F)(F)C(F)(F)C(F)(F)C(F)(F)C(F)(F)C(F)(F)C(F)(F)F [Perfluoroundecanoic acid (PFUnDA)] , respond with its CLhep.
0.000

Given `O=S(=O)([O-])C(F)(F)C(F)(F)C(F)(F)C(F)(F)C(F)(F)C(F)(F)F.[K+]` , respond with its CLhep.
0.000

---

- System: pooled primary human hepatocyte suspensions
- ASSAY_PROTOCOL: Hepatic clearance assay (substrate depletion, LC-MS)
- EXPERIMENTAL_CONTEXT: pooled primary human hepatocyte suspensions; in µL/min/10^6 cells
MEASUREMENT_NAME: in vitro CLint exp assay
Please reply with the value in numeric form only.

Provide in vitro CLint exp assay, system pooled primary human hepatocyte suspensions, entry O=C(Cl)C(F)(F)C(F)(F)C(F)(F)C(F)(F)C(F)(F)C(F)(F)F [Perfluoroheptanoyl chloride (PFHpA-Cl)]
0

Provide in vitro CLint exp assay, system pooled primary human hepatocyte suspensions, entry `O=C(O)C(F)(F)C(F)(F)C(F)(F)C(F)(F)C(F)(F)C(F)(F)C(F)(F)C(F)F`
0

Provide in vitro CLint exp assay, system pooled primary human hepatocyte suspensions, entry NS(=O)(=O)C(F)(F)C(F)(F)C(F)(F)C(F)(F)C(F)(F)C(F)(F)F [Perfluorohexanesulfonamide (PFHxSA)]
0

Provide in vitro CLint exp assay, system pooled primary human hepatocyte suspensions, entry `O=C(O)C(F)(F)C(F)(F)C(F)(F)C(F)(F)C(F)(F)F`
1.62

Provide in vitro CLint exp assay, system pooled primary human hepatocyte suspensions, entry `O=C(O)C(F)(F)C(F)(F)C(F)(F)C(F)(F)C(F)(F)C(F)(F)C(F)(F)C(F)(F)F`
0

Provide in vitro CLint exp assay, system pooled primary human hepatocyte suspensions, entry `O=S(=O)(O)C(F)(F)C(F)(F)C(F)(F)C(F)(F)F`
4.75

Provide in vitro CLint exp assay, system pooled primary human hepatocyte suspensions, entry `O=C(O)C(F)(F)OC(F)(F)C(F)(F)OC(F)(F)C(F)(F)C(F)(F)C(F)(F)F`
0

Provide in vitro CLint exp assay, system pooled primary human hepatocyte suspensions, entry `O=C(O)C(F)(F)C(F)(F)C(F)(F)C(F)(F)C(F)(F)C(F)(F)C(F)(F)F`
0

Provide in vitro CLint exp assay, system pooled primary human hepatocyte suspensions, entry `O=C(O)C(F)(F)C(F)(F)C(F)(F)C(F)(F)F`
0

Provide in vitro CLint exp assay, system pooled primary human hepatocyte suspensions, entry `O=S(=O)([O-])C(F)(F)C(F)(F)C(F)(F)C(F)(F)F.[K+]`
0

Provide in vitro CLint exp assay, system pooled primary human hepatocyte suspensions, entry `O=C(O)CCC(F)(F)C(F)(F)C(F)(F)C(F)(F)C(F)(F)C(F)(F)F`
5.05

Provide in vitro CLint exp assay, system pooled primary human hepatocyte suspensions, entry O=C([O-])C(F)(F)C(F)(F)C(F)(F)C(F)(F)C(F)(F)C(F)(F)C(F)(F)F.[K+] [Potassium perfluorooctanoate (KPFOA)]
0

Provide in vitro CLint exp assay, system pooled primary human hepatocyte suspensions, entry `O=C(O)C(F)(F)C(F)(F)C(F)(F)OC(F)(F)F`
1.5

Provide in vitro CLint exp assay, system pooled primary human hepatocyte suspensions, entry `O=C(Cl)C(F)(F)C(F)(F)C(F)(F)C(F)(F)C(F)(F)C(F)(F)C(F)(F)F`
0

Provide in vitro CLint exp assay, system pooled primary human hepatocyte suspensions, entry `O=S(=O)(O)CCC(F)(F)C(F)(F)C(F)(F)C(F)(F)C(F)(F)C(F)(F)C(F)(F)C(F)(F)F`
1.53

---

- ASSAY_PROTOCOL: IVIVE: steady-state concentration (Css), generic HTTK model
- Parameters: species or system human
- EXPERIMENTAL_CONTEXT: QL 1500000 uL/min
MEASUREMENT_NAME: CLhep (L/h)
Kindly answer with a numeric value in L/h, unit omitted.

Given `CCNS(=O)(=O)C(F)(F)C(F)(F)C(F)(F)C(F)(F)C(F)(F)C(F)(F)C(F)(F)C(F)(F)F` , respond with its CLhep.
4.700

Given `O=C(O)CCC(F)(F)C(F)(F)C(F)(F)C(F)(F)C(F)(F)C(F)(F)C(F)(F)F` , respond with its CLhep.
1.272

Given NS(=O)(=O)C(F)(F)C(F)(F)C(F)(F)C(F)(F)C(F)(F)C(F)(F)F [Perfluorohexanesulfonamide (PFHxSA)] , respond with its CLhep.
0.000

Given `O=C(O)CCC(F)(F)C(F)(F)C(F)(F)C(F)(F)C(F)(F)F` , respond with its CLhep.
1.318

---

- System: pooled primary human hepatocyte suspensions
- EXPERIMENTAL_CONTEXT: both, hepatocytes, 1 μM
MEASUREMENT_NAME: Clint.1.Med

Given `O=C(O)C=CC(F)(C(F)(F)F)C(F)(F)F` , respond with its Clint.1.Med.
0

Given NS(=O)(=O)C(F)(F)C(F)(F)C(F)(F)C(F)(F)C(F)(F)C(F)(F)C(F)(F)C(F)(F)F [PFOSA, Perfluorooctanesulfonamide] , respond with its Clint.1.Med.
0

Given `O=C(O)CCC(F)(C(F)(F)F)C(F)(F)F` , respond with its Clint.1.Med.
0

Given CCNS(=O)(=O)C(F)(F)C(F)(F)C(F)(F)C(F)(F)C(F)(F)C(F)(F)C(F)(F)C(F)(F)F [NEtFOSA, N-Ethylperfluorooctanesulfonamide] , respond with its Clint.1.Med.
164

The values you see were collected from paper PMC11435625.
